test system: GT1a replicon encoding NS5A mutation M28T; assay: Transient replication assay, GT1a replicon with NS5A mutation M28T; format: cell-based; settings: Hepatitis C virus, read-out: EC50 1a M28T
Result type: EC50 (nM)

Compound: COC(=O)N[C@H](C(=O)N1[C@H](c2nc3ccc4cc(-c5ccc(-c6cnc([C@@H]7C[C@@]8(CCCOC8)CN7C(=O)[C@H](NC(=O)OC)C7C[C@@H](C)O[C@H](C)C7)[nH]6)cc5)ccc4c3[nH]2)C[C@@H]2CCCC[C@@H]21)C(C)C (stereo in doubt)
Test target: GT1a replicon encoding NS5A mutation M28T
Unit: nM
Readout number: 0.4
//
Compound: COC(=O)N[C@H](C(=O)N1CC2(CC2)C[C@H]1c1ncc(-c2ccc(-c3ccc4c(ccc5nc([C@@H]6C[C@@]7(CCCOC7)CN6C(=O)[C@@H](NC(=O)OC)C(C)C)[nH]c54)c3)cc2)[nH]1)C(C)C
Test target: GT1a replicon encoding NS5A mutation M28T
Unit: nM
Readout number: 0.06
